CC50 values by entry
RUN DESCRIPTION: Cytotoxicity against human HT1299 cells after 48 hrs by alamar blue assay
Type: functional
CONDITION: HT1299, 48 h, read-out: LC50 (the source's name)
Field format: number, assumed µM, no unit text.

Please review the entries below; each comes with its answer.
CCOC(=O)C1c2[nH]c3ccccc3c2CCN1C(=O)OCc1ccccc1 (stereo not drawn)	52.9
CCOC(=O)C(C)C1c2[nH]c3ccccc3c2CCN1C(=O)OC(C)(C)C (stereo not drawn)	53.7
CN1C(=O)C(Cc2nccc3c4ccccc4n(C)c23)C(=O)N(C)C1=O	57.5
CCOC(=O)C(C)C1c2c(c3ccccc3n2C(=O)OC(C)(C)C)CCN1C(=O)OC(C)(C)C (stereo not drawn)	42.3

Switching to the query record.
The recorded CC50 for CN1C(=O)C(C2NC=Cc3c2[nH]c2ccccc32)C(=O)N(C)C1=O (stereo not drawn) is 61.7

###

RUN DESCRIPTION: Cytotoxicity against human BJeLR cells expressing RAS G12V mutant after 48 hrs by alamar blue assay
Type: functional, cell-based
CONDITION: read-out: LC50 (the source's name)
MEASUREMENT TYPE: log10(CC50) (log10 of the value in µM)
Could you please treat all values as log10 of CC50 in µM?

Please review the entries below; each comes with its answer.
CC(CC1C(=O)N(C)C(=O)N(C)C1=O)C1NCCc2c1[nH]c1ccccc21 (stereo unspecified)	1.73
CC(CC1C(=O)N(C)C(=O)N(C)C1=O)C1NCCc2c1n(C(=O)OC(C)(C)C)c1ccccc21 (stereo unspecified)	1.63
CN1C(=O)C(C2NCCc3c2[nH]c2ccccc32)C(=O)N(C)C1=O (stereo unspecified)	1.37
COC(OC)C1NCCc2c1[nH]c1ccccc21 (stereo unspecified)	1.91
CCOC(=O)C(C)C1NCCc2c1[nH]c1ccccc21 (stereo unspecified)	1.50

The recorded log10(CC50) for CCOC(=O)C1c2c(c3ccccc3n2C)CCN1C(=O)OC (stereo unspecified) is 0.80

The recorded log10(CC50) for CC(C=O)C1c2c(c3ccccc3n2C(=O)OC(C)(C)C)CCN1C(=O)OC(C)(C)C (stereo unspecified) is 1.67

The recorded log10(CC50) for CCOC(=O)C1c2[nH]c3ccccc3c2CCN1C(=O)OCc1ccccc1 (stereo unspecified) is 1.11

The recorded log10(CC50) for CC(C)(C)OC(=O)N1CCc2c(n(C(=O)OC(C)(C)C)c3ccccc23)C1CC=O (stereo unspecified) is 1.37

The recorded log10(CC50) for COC(=O)CC1c2[nH]c3ccccc3c2CCN1Cc1ccccc1 (stereo unspecified) is 1.78

The recorded log10(CC50) for COC(OC)C1c2[nH]c3ccccc3c2CCN1C(=O)OCc1ccccc1 (stereo unspecified) is 1.01

The recorded log10(CC50) for COC(OC)c1nccc2c1[nH]c1ccccc12 is 0.89

The recorded log10(CC50) for CCOC(=O)C1NCCc2c1[nH]c1ccccc21 (stereo unspecified) is 1.86

The recorded log10(CC50) for CC(CC1C(=O)N(C)C(=O)N(C)C1=O)C1c2c(c3ccccc3n2C(=O)OC(C)(C)C)CCN1C(=O)OC(C)(C)C (stereo unspecified) is 1.55

The recorded log10(CC50) for O=Cc1nccc2c1[nH]c1ccccc12 is 1.51

The recorded log10(CC50) for CN1C(=O)C(C2NC=Cc3c2[nH]c2ccccc32)C(=O)N(C)C1=O (stereo unspecified) is 1.11
